Test system: NCI-H23 lung
PROCEDURE_TEXT: NCI tumour cell line growth inhibition, 48 h
I'd appreciate it if you could supply TGI values for the items below.

Example molecules with recorded TGI:
MOLECULE	EXPERIMENTAL_VALUE
Cc1cc([N+](=O)[O-])ccc1NC(=O)C(=O)C(C(=O)c1ccccc1-c1ccccc1)C1OC(=O)c2ccccc21 (stereo not given)	80 µM
O=C(COc1ccc(/C=C2\COc3ccccc3C2=O)cc1)Nc1nccs1	25.4 µM
CSC1=Nc2c(c(C)c(-c3ccccc3)n2CCCN2CCCCC2)C2=NC(=O)C[C@H](C)N12	> 46.4 µM

List the reported TGI of each molecule below.
1. CC(=O)C1C(=O)C(=O)N(c2ccccc2)C1=O (stereo not given)
2. N#Cc1c(NC(=O)NCc2ccccc2)sc2c1CCCC2

Key:
> 100 µM
> 26.3 µM

---

Tested on: A549 NSCLC
PROCEDURE_TEXT: NCI tumour cell line growth inhibition, 48 h
I'd appreciate it if you could supply TGI values for the items below.

COMPOUND	TGI
COc1cccc2ccc(C(=O)c3ccccc3)nc12	> 100 µM
Nc1c(C(=O)c2ccc(-c3cccnc3)cc2)cnn1-c1ccc(F)cc1	> 25 µM
Cc1c(O)c2ccccc2oc1=O	> 100 µM
C=CC(=O)NCCSCCCOC1(C(=O)O)CC(O)C(NC(C)=O)C(C(O)C(O)CO)O1 (stereo not given)	> 100 µM

Lab note: next compound to report on.
Exercise: What is its TGI for A549 NSCLC? Entry: COc1ccc(CC2C3=C(CCN2C(=O)C2CCC2)CC2(CC3)OCCO2)cc1O (stereo not given)
Key: > 100 µM

---

System: MALME-3M melanoma
PROCEDURE_TEXT: NCI tumour cell line growth inhibition, 48 h
I'd appreciate it if you could supply log10 of TGI values for the items below.
Friendly reminder: values = log10 of TGI, unit µM.

COMPOUND	log10 of TGI
O=C1c2[nH]cc(CNC3CN4CCC3CC4)c2C(=O)c2c1c(O)c1ccccc1c2O (centres undefined)	0.85
C=C(C)C(=O)O[C@H]1CC2=C[C@@H](C[C@@]3(C)O[C@@H]3[C@H]3OC(=O)C(=C)[C@@H]31)OC2=O	0.75
CCCC(=O)Nc1cc(/C=C/C(=O)N2CC(CCl)c3c2cc(OCc2ccccc2)c2[nH]cc(C)c32)n(C)c1 (centres undefined)	-0.45
C=C(C)[C@@H]1CC[C@]2(COCCC#N)CC[C@]3(C)[C@H](CC[C@@H]4[C@@](C)(CCCNCCC#N)[C@H](C(=C)C)CC[C@]43C)[C@@H]12	1.21
C[C@]12CC[C@@H]3c4cc(OC(F)F)c(O)cc4CC[C@H]3[C@@H]1CC[C@@H]2OS(N)(=O)=O	1.44
CCN(CC)CCNc1ccc(C)c2sc3cc(Cl)ccc3c(=O)c12	0.56

List the reported log10 of TGI of each compound below.
1. N#C[C@H](C(=O)c1ccccc1F)c1nc2ccccc2s1
2. c1ccc2c(CN3CCN(Cc4c[nH]c5ccccc45)CC3)c[nH]c2c1
3. CCOP(=O)(C=C=C1CCC2[C@@H]3CCc4cc(OC)ccc4C3CC[C@]12C)OCC (some centres undefined)

Key:
1.75
1.47
1.48

---

I'd appreciate it if you could supply TGI values for the items below.
Tested on: UACC-257 melanoma
PROCEDURE_TEXT: NCI tumour cell line growth inhibition, 48 h

List the reported TGI of each compound below.
1. CC(=O)OC(CN1CCN(c2ccccn2)CC1)Cn1sc2nc(C)cc(C)c2c1=O (configuration not stated)
2. O=C(O)CSCc1cc2c(O)c(c1)Cc1cc(CSCC(=O)O)cc(c1O)Cc1cc(CSCC(=O)O)cc(c1O)Cc1cc(CSCC(=O)O)cc(c1O)C2
3. CCOc1ccc(N/C(=C(/C(Cl)=C(/Cl)Nc2ccccc2)[N+](=O)[O-])n2nnc3ccccc32)cc1
4. NCCCNc1nc2ccccc2c2c(=O)c3cc(F)cc(F)c3sc12

Key:
32 µM
> 100 µM
> 100 µM
4.18 µM
